B1: APBB1IP (parent)
chain: FNYSVGFKDLNESLNALEDQDLDA

Variants of: B1
Assay: protein stability index of a GFP-peptide fusion (GPS, HEK-293T) (PSI 1-6); higher = more stable;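 also: lentivirally expressed fusions sorted by FACS into six bins by GFP to DsRed ratio, PSI derived from sequencing read proportions per bin multiplied by bin number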
Details: c terminus: a fixed tail appended
Kindly supply the reported protein stability index values for the records listed here.
Simply state the number, no unit and no words.

Record request: protein stability index value, item S13I
2.88

Record request: protein stability index value, item E12N
4.37

Record request: protein stability index value, item V5R
4.82

Record request: protein stability index value, item D21N
4.07

Record request: protein stability index value, item D21T
4.14

Record request: protein stability index value, item V5W
3.68

Record request: protein stability index value, item S13Q
4.51

Record request: protein stability index value, item K8Y
3.58

Record request: protein stability index value, item V5Q
4.65

Record request: protein stability index value, item A24V
4.5

Record request: protein stability index value, item N11R
4.18

Record request: protein stability index value, item N2S
2.64

Record request: protein stability index value, item F1W
4.53

Record request: protein stability index value, item A24W
3.77

Record request: protein stability index value, item A24Y
3.55

Record request: protein stability index value, item L10Q
4.93

Record request: protein stability index value, item E18V
3.35

Record request: protein stability index value, item L22V
4.6

Record request: protein stability index value, item L17D
5.25

Record request: protein stability index value, item F1I
4.43

Record request: protein stability index value, item S13K
3.8

Record request: protein stability index value, item Q20V
4

Record request: protein stability index value, item N2K
4.11

Record request: protein stability index value, item N11V
3.45

Record request: protein stability index value, item D23H
3.69

Record request: protein stability index value, item S4A
4.53

Record request: protein stability index value, item F1H
5.05

Record request: protein stability index value, item L14D
4.89

Record request: protein stability index value, item S4G
4.88

Record request: protein stability index value, item G6Y
1.71

Record request: protein stability index value, item F1S
4.44

Record request: protein stability index value, item S4I
3.76

Record request: protein stability index value, item D9C
3.13

Record request: protein stability index value, item L17P
4.65

Record request: protein stability index value, item Q20N
4.53

Record request: protein stability index value, item E12S
4.17

Record request: protein stability index value, item K8W
2.27

Record request: protein stability index value, item Q20E
4.69

Record request: protein stability index value, item L14E
4.51

Record request: protein stability index value, item E12F
3.63

Record request: protein stability index value, item D19P
3.65

Record request: protein stability index value, item D9T
4.2

Record request: protein stability index value, item N2E
4.45

Record request: protein stability index value, item D9F
3.52

Record request: protein stability index value, item Q20D
4.4

Record request: protein stability index value, item K8I
2.51
